testProtocol: Pharmacokinetic study: plasma levels after oral SZ-A in SD rats (LC-MS/MS, DAS 3.2.8)
Assay type: in vivo
appliedConditions: both sexes, rat, plasma, oral SZ-A 25 mg/kg, n=8, read-out: MRT(0-t)
metric: MRT last (h)

molecule	resultUnits	MRT last
OC[C@H]1NC[C@@H](O)[C@@H]1O	h	1.26
OC[C@H]1NCC[C@@H](O)[C@@H]1O	h	1.55
OC[C@H]1NC[C@H](O)[C@@H](O)[C@@H]1O	h	1.27

---

testProtocol: Tissue distribution after single oral SZ-A (40 mg/kg) in SD rats, plasma and 12 tissues
Type: in vivo
appliedConditions: rat, Aortic blood vessels, n=5
Method: Twenty SD rats were randomly classified into four groups corresponding to four-time points (5 and 30 min, 4 and 12 h) (n = 20; 5 animals per time point) that received SZ-A solution (40 mg/kg) via oral administration. […] Collected tissue samples were washed with normal saline. The surface moisture was removed by blotting gently with filter paper, and the weight was recorded. […]
metric: Cmax (ng/mL)

[a] OC[C@H]1NCC[C@@H](O)[C@@H]1O
[b] OC[C@H]1NC[C@H](O)[C@@H](O)[C@@H]1O
[c] OC[C@H]1NC[C@@H](O)[C@@H]1O
IN: Order each entry by recorded Cmax, climbing from the minimum. Please, when replying, give the labels in the order that was requested.
OUT: c, a, b
(c: 756 ng/mL, a: 1090 ng/mL, b: 4360 ng/mL)
